assayName: Solubilization test of imidazole compounds
Type: physicochemical
appliedConditions: 0.20 g imidazole compound dissolved in 2.0 g carboxylic acid compound; ion-exchange water added until solution became clouded; larger = better solubilization
Amount of water added of 3 mL or higher: true (1). Under 3 mL: false (0).

CCCCOCC(C)OCC(C)OCC(C)OCC(=O)O (stereo not drawn)	false (0)

Now consider a different compound.
Decide: is the reported value of Amount of water added for CCOCCOCCOCC(=O)O [Compound C, 2-[2-(2-ethoxyethoxy)ethoxy]acetic acid] equal to or greater than 3 mL?
true (1)

----------
Listed compounds paired with reported Amount of water added
assayName: Solubilization test of imidazole compounds
Assay type: physicochemical
appliedConditions: 0.20 g imidazole compound dissolved in 2.0 g carboxylic acid compound; ion-exchange water added until solution became clouded; larger = better solubilization
Lab book: enter the figure in mL, no units written.

CCCOCC(C)OCC(C)OCC(=O)O (stereo not shown) [Compound F]	3.0

The reported Amount of water added of the compound CCCOCC(=O)O [2-(n-Propoxy)acetic acid] was 2.8

The reported Amount of water added of the compound CCCCOCC(=O)O [2-(n-Butoxy)acetic acid] was 1.0

The reported Amount of water added of the compound CCOCC(=O)O [Compound A, 2-Ethoxyacetic acid] was 3.3

Attribution: patent US20080318070A1
